Assay: Half life in Sprague-Dawley rat at 10 mg/kg, po by LC-MS analysis
Format: ADME, organism-based
Settings: in vivo
measurementType: half-life

Inquiry: So what does the record say about half-life for `O=C(Nc1cccc(C(F)(F)F)c1)c1sc(=S)n2c1[nH]c(=O)c1cc(Br)ccc12` ?
Reply text: 8.5 h

----------
Test: Cmax in Sprague-Dawley rat at 10 mg/kg, po by LC-MS analysis
Type: ADME, organism-based
Set-up: dose 10 mg/kg, route po
Conditions: in vivo
measurementType: Cmax
Report the figure along with its unit, number first.

Inquiry: So what does the record say about Cmax for `O=C(Nc1cccc(C(F)(F)F)c1)c1sc(=S)n2c1[nH]c(=O)c1cc(Br)ccc12` ?
Reply text: 1190 ng/mL

----------
Test: Clearance in Sprague-Dawley rat at 5 mg/kg, iv by LC-MS analysis
Type: ADME, organism-based
Settings: in vivo
measurementType: clearance (mL/min/kg)
Give bare numbers, in mL/min/kg.

Inquiry: So what does the record say about clearance for `O=C(Nc1cccc(C(F)(F)F)c1)c1sc(=S)n2c1[nH]c(=O)c1cc(Br)ccc12` ?
Reply text: 4.5

----------
Answer each item with its documented remaining at 0.5 h, 1 µM.
Test: Stability in human liver microsomes assessed as parent compound remaining at 1 uM measured after 30 mins in presence of NADPH regeneration system by LC-MS/MS analysis
Type: ADME, Microsome
Conditions: read-out: Stability
Answers are plain numbers, in %.

> print(dat)
                          structureassmiles           measurementtype  outputunit  observedmeasurement
1  O=C(Nc1cccc(F)c1)c1sc(=S)n2c1[nH]c(=O)c1cc(Br)ccc12  remaining at 0.5 h, 1 µM           %                   56

We next turn to a different molecule, shown below.
Inquiry: So what does the record say about remaining at 0.5 h, 1 µM for `O=C(Nc1cccc(C(F)(F)F)c1)c1sc(=S)n2c1[nH]c(=O)c1cc(Br)ccc12` ?
Reply text: 76

----------
Test: Oral bioavailability in Sprague-Dawley rat at 10 mg/kg by LC-MS analysis
Type: ADME, organism-based
Conditions: in vivo
measurementType: bioavailability
Report the figure along with its unit, number first.

Inquiry: So what does the record say about bioavailability for `O=C(Nc1cccc(C(F)(F)F)c1)c1sc(=S)n2c1[nH]c(=O)c1cc(Br)ccc12` ?
Reply text: 25.4%
